target: Glucocorticoid receptor (Homo sapiens); experiment: qHTS assay to identify small molecule antagonists of the glucocorticoid receptor (GR) signaling pathway (AID 720692); conditions: GR-bla HeLa, beta-lactamase FRET ratio, dexamethasone-stimulated, 18 h; series mostly up to 58.5 µM
Records with an inconclusive call do not appear. Active and inactive are the calls of the source. Calls follow the shape of the dose curve; as a rule, active = well fitted inhibition curve with a large enough effect in the signal ratio in the repeat runs (not every such curve was filed as active); inconclusive = weak or mixed curves, or effect the other way; inactive = no such curve, though single readings can be large or run the other way; the % refers to the signal ratio.
Respond only with the outcome that fits, drawn from T for active, F for inactive

Challenge: Record request — test call for CCCC(=O)Nc1c(I)cc(I)c(CC(CC)C(=O)O)c1I (stereo not drawn)
Response given: F

Challenge: Record request — test call for COCC(=O)Nc1cc(Sc2ccccc2)ccc1N=C(NC(=O)OC)NC(=O)OC
Response given: F

Challenge: Record request — test call for CCOC(=O)CCC(=O)O[C@H]1[C@H](O[C@@H]2[C@@H](C)[C@H](O[C@H]3C[C@@](C)(OC)[C@@H](O)[C@H](C)O3)[C@@H](C)C(=O)O[C@H](CC)[C@@](C)(O)[C@H](O)[C@@H](C)C(=O)[C@H](C)C[C@@]2(C)O)O[C@H](C)C[C@@H]1N(C)C
Response given: F

Challenge: Record request — test call for NCCCC[C@H](NC(=O)[C@@H]1CCCN1C(=O)[C@@H]1CSSC[C@H](N)C(=O)N[C@@H](Cc2ccccc2)C(=O)N[C@@H](Cc2ccccc2)C(=O)N[C@@H](CCC(N)=O)C(=O)N[C@@H](CC(N)=O)C(=O)N1)C(=O)NCC(N)=O
Response given: F

Challenge: Record request — test call for CCCCCCCCCCCCCCCCSCC(COC)COP(=O)([O-])OCC[N+](C)(C)C (stereo not drawn)
Response given: T

Challenge: Record request — test call for Cn1nnnc1SCC1=C(C(=O)O)N2C(=O)[C@@H](NC(=O)[C@H](O)c3ccccc3)[C@H]2SC1
Response given: F

Challenge: Record request — test call for CO/N=C(\C(=O)N[C@@H]1C(=O)N2C(C(=O)O)=C(CSC(=O)c3ccco3)CS[C@H]12)c1csc(N)n1
Response given: F

Challenge: Record request — test call for CN1CCN2c3ncccc3Cc3ccccc3C2C1 (stereo not drawn)
Response given: F

Challenge: Record request — test call for CCCCCCCCCCCCCCCCCC(=O)OC[C@@H](O)[C@H]1OC[C@H](O)[C@H]1O
Response given: F

Challenge: Record request — test call for CCOC(=O)[C@H](CS)NCCN[C@@H](CS)C(=O)OCC
Response given: F

Challenge: Record request — test call for O=C(O[C@H]1CN2CCC1CC2)N1CCc2ccccc2[C@@H]1c1ccccc1
Response given: F

Challenge: Record request — test call for O=C(O)COc1ccc(CCNS(=O)(=O)c2ccccc2)s1
Response given: F

Challenge: Record request — test call for O=[N+]([O-])c1c(Cl)cccc1-c1c[nH]cc1Cl
Response given: T

###

assay: qHTS assay for identifying genotoxic compounds that show differential cytotoxicity against isogenic chicken DT40 cell lines with known DNA damage response pathways - Rad54/Ku70 mutant cell line (AID 743015); details: DT40 Rad54/Ku70 mutant viability, CellTiter-Glo, 40 h; series mostly up to 66.8 µM; also: nearly all actives have a fitted effect of over 60% in size
Records with an inconclusive call do not appear. Calls of active or inactive are those of the source. Calls come from the whole dose curve; as a rule, active = well fitted cell-killing curve with a large enough effect in the repeat runs; inconclusive = weak or mixed curves; inactive = no such curve, though single readings can be large or run the other way.
Respond only with the outcome that fits, drawn from active, inactive

Solved cases below.
* O=[n+]1ccn([O-])c2ccccc21 | inactive
* CO[C@H]1C=CO[C@@]2(C)Oc3c(C)c(O)c4c(O)c(c5c(nc6cc(C)ccn65)c4c3C2=O)NC(=O)/C(C)=C\C=C[C@H](C)[C@H](O)[C@@H](C)[C@@H](O)[C@@H](C)[C@H](OC(C)=O)[C@@H]1C | active
* CSc1nc2cc(Oc3cccc(Cl)c3Cl)c(Cl)cc2[nH]1 | active
* CCCCCCCCCCCCCCCC(=O)OCC(COC(=O)CCCCCCCCCCCCCCC)OC(=O)CCCCCCCCCCCCCCC | inactive

Now consider a different compound.
Challenge: Record request — test call for Cc1cc(-c2ccc(N=Nc3c(S(=O)(=O)O)cc4cc(S(=O)(=O)O)cc(N)c4c3O)c(C)c2)ccc1N=Nc1c(S(=O)(=O)O)cc2cc(S(=O)(=O)O)cc(N)c2c1O
Response given: active
